From: patent US11377442B2

assay_method_text: PK in rat plasma
Type: in vivo
experimental_context: rat; Table 38; IV plasma, 1.13 mg/kg
readout: MRT last (min)

| compound | recorded_measurement |
| --- | --- |
| COCCN[C@H]1CS(=O)(=O)C[C@@H]1S(=O)(=O)c1ccc(Cl)cc1 [Compound D136] | 21 |

----------
measured_target: NR2F6 (Homo sapiens, UniProt P10588)
Construct: expressed in transfected cells; also transient transfection
assay_method_text: NR2F6 agonist screening, Firefly signal cmpd/DMSO
Assay type: cell-based
experimental_context: 0.5 uM; F4
Each entry below carries its reported Firefly F4, cmpd/DMSO (mean).

| compound | Firefly F4, cmpd/DMSO (mean) |
| --- | --- |
| O=S1(=O)C[C@H](NCCc2cccs2)[C@@H](S(=O)(=O)c2ccc(Cl)cc2)C1 [Compound D128] | 1.1 |
| CCCCN(C)[C@H]1CS(=O)(=O)C[C@@H]1S(=O)(=O)c1ccc(Cl)cc1 [Compound D132] | 1.5 |
| O=S1(=O)C[C@H](NC2CCCC2)[C@@H](S(=O)(=O)c2ccc(F)cc2)C1 [Compound D114] | 1.6 |
| CC1CCN([C@H]2CS(=O)(=O)C[C@@H]2S(=O)(=O)c2cccs2)CC1 [Compound D106] | 1.5 |
| CC(C)CN[C@H]1CS(=O)(=O)C[C@@H]1S(=O)(=O)c1ccc(Cl)cc1 [Compound D120] | 1.3 |
| O=S1(=O)C[C@H](N2CCCC2)[C@@H](S(=O)(=O)c2ccc(Cl)cc2)C1 [Compound D122] | 1.6 |
| CC(C)CCN[C@H]1CS(=O)(=O)C[C@@H]1S(=O)(=O)c1ccc(Cl)cc1 [Compound D131] | 1.4 |
| Cc1cccc(CN[C@H]2CS(=O)(=O)C[C@@H]2S(=O)(=O)c2ccc(Cl)cc2)c1 [Compound D127] | 1.2 |

----------
measured_target: NR2F6 (Homo sapiens, UniProt P10588)
Construct: expressed in transfected cells; also transient transfection
assay_method_text: NR2F6 agonist screening, Firefly signal cmpd/DMSO
Format: cell-based
experimental_context: C11 analogs follow set (Tables 2-10), repeat 1
So basically: is Firefly, cmpd/DMSO repeat 1 under 2? Then yes (1). Not under? Then no (0).

| given_smiles | category_label |
| --- | --- |
| O=c1oc2ccc([N+](=O)[O-])cc2cc1S(=O)(=O)c1ccccc1 | no (0) |
| O=c1oc2ccccc2cc1S(=O)(=O)c1ccc(Cl)c(Cl)c1 | yes (1) |
| O=c1oc2ccc(F)cc2cc1S(=O)(=O)c1ccc(Br)cc1 | no (0) |
| O=C(Nc1cccc(Cl)c1)c1ccc2oc(=O)c(S(=O)(=O)c3ccc(F)cc3)cc2c1 | yes (1) |
| Cc1ccc(S(=O)(=O)c2cc3cc(Cl)ccc3oc2=O)cc1C | no (0) |
| COc1cc(NC(=O)c2ccc3oc(=O)c(S(=O)(=O)c4ccc(F)cc4)cc3c2)cc(OC)c1 | yes (1) |
| COc1cccc(S(=O)(=O)c2cc3ccc(OC)cc3oc2=O)c1 | yes (1) |
| O=c1oc2ccc(Br)cc2cc1S(=O)(=O)c1cccc(Cl)c1 | yes (1) |
| COc1ccc2cc(S(=O)(=O)c3ccc(C(C)(C)C)cc3)c(=O)oc2c1 | no (0) |
| COc1ccc(S(=O)(=O)c2cc3cc(OC)ccc3oc2=O)cc1 | no (0) |
| O=c1oc2ccc(F)cc2cc1S(=O)(=O)c1ccc(Cl)cc1 | no (0) |
| CC(C)(C)c1ccc(S(=O)(=O)c2cc3cc(Cl)ccc3oc2=O)cc1 | no (0) |
| COc1ccccc1NC(=O)c1ccc2oc(=O)c(S(=O)(=O)c3ccc(F)cc3)cc2c1 | no (0) |
| O=C(NCc1ccc(F)cc1)c1ccc2oc(=O)c(S(=O)(=O)c3ccc(Cl)cc3)cc2c1 | no (0) |
| O=C(Nc1ccc(F)cc1)c1ccc2oc(=O)c(S(=O)(=O)c3ccc(F)cc3)cc2c1 | yes (1) |
| COc1cc(NC(=O)c2ccc3oc(=O)c(S(=O)(=O)c4ccccc4)cc3c2)cc(OC)c1 | no (0) |
| Cc1cc(C)cc(S(=O)(=O)c2cc3cc(Cl)ccc3oc2=O)c1 | yes (1) |

----------
measured_target: NR2F6 (Homo sapiens)
Construct: expressed in transfected cells; also transient transfection
Sequence (P10588 1-404): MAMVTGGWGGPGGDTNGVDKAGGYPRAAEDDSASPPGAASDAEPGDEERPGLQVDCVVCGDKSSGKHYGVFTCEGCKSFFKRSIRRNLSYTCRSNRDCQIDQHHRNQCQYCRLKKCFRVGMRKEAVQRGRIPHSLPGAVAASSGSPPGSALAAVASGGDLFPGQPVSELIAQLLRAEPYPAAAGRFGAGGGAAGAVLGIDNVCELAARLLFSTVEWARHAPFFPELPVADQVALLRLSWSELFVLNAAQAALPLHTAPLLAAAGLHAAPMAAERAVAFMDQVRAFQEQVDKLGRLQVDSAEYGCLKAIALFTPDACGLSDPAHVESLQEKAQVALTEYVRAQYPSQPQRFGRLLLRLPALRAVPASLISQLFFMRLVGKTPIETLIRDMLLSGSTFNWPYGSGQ
assay_method_text: NR2F6 agonist screening, Firefly signal cmpd/DMSO
Assay type: cell-based
experimental_context: C11 analogs follow set (Tables 2-10), repeat 2
// values below are reported Firefly, cmpd/DMSO repeat 2

| compound | Firefly, cmpd/DMSO repeat 2 |
| --- | --- |
| COc1ccc(NC(=O)c2ccc3oc(=O)c(S(=O)(=O)c4ccc(C)cc4)cc3c2)cc1 [Compound C178] | 16.9 |
| Cc1ccc(NC(=O)c2ccc3oc(=O)c(S(=O)(=O)c4ccccc4)cc3c2)c(C)c1 [Compound C164] | 19.6 |
| COc1ccc(NC(=O)c2ccc3oc(=O)c(S(=O)(=O)c4ccc(C)cc4)cc3c2)cc1OC [Compound C121] | 21.5 |
| O=C(NCCc1ccccc1)c1ccc2oc(=O)c(S(=O)(=O)c3ccc(Cl)cc3)cc2c1 [Compound C114] | 4.7 |

----------
measured_target: NR2F6 (Homo sapiens)
Construct: expressed in transfected cells; also transient transfection
assay_method_text: NR2F6 agonist screening, Firefly signal cmpd/DMSO
Format: cell-based
experimental_context: Table 11; repeat 2
Label rule, in plain words: Firefly, cmpd/DMSO repeat 2 of 3 and up is met, under 3 is not met.

| given_smiles | category_label |
| --- | --- |
| COc1ccc(S(=O)(=O)c2cc3cc(Br)cc(Br)c3oc2=O)cc1 | not met |
| O=c1oc2c(F)cc(F)cc2cc1S(=O)(=O)c1ccc(Br)cc1 | met |
| COc1cc(Br)cc2cc(S(=O)(=O)c3ccc(C(C)(C)C)cc3)c(=O)oc12 | not met |
| COc1cc(Br)cc2cc(S(=O)(=O)c3ccc(F)cc3)c(=O)oc12 | met |
| CC(C)c1ccc(S(=O)(=O)c2cc3cc(Br)cc(Br)c3oc2=O)cc1 | not met |
| O=c1oc2c(F)cc(F)cc2cc1S(=O)(=O)c1ccccc1 | met |
| COc1cc(Br)cc2cc(S(=O)(=O)c3ccc(F)c(C)c3)c(=O)oc12 | met |
| Cc1cc(S(=O)(=O)c2cc3cc(F)cc(F)c3oc2=O)ccc1F | met |
| COc1cc(Br)cc2cc(S(=O)(=O)c3ccccc3)c(=O)oc12 | met |
| COc1ccc(S(=O)(=O)c2cc3cc(F)cc(F)c3oc2=O)cc1 | met |
| COc1ccc(S(=O)(=O)c2cc3cc(Br)cc(OC)c3oc2=O)cc1 | met |
| O=c1oc2c(Br)cc(Br)cc2cc1S(=O)(=O)c1ccc(Cl)cc1 | not met |
| O=c1oc2c(Br)cc(Br)cc2cc1S(=O)(=O)c1ccc(Cl)c(Cl)c1 | not met |
| Cc1ccc(S(=O)(=O)c2cc3cc(Br)cc(Br)c3oc2=O)cc1C | not met |
| CC(C)(C)c1ccc(S(=O)(=O)c2cc3cc(F)cc(F)c3oc2=O)cc1 | not met |
| O=c1oc2c(F)cc(F)cc2cc1S(=O)(=O)c1ccc(Cl)cc1 | met |

----------
measured_target: NR2F6 (Homo sapiens)
Construct: expressed in transfected cells; also transient transfection
assay_method_text: NR2F6 agonist screening, Firefly signal cmpd/DMSO
Format: cell-based
experimental_context: 10% FBS; 40 uM
readout: Firefly, F4/pGL4 for S/B(F4) > 3

| compound | measured_target | readout | recorded_measurement |
| --- | --- | --- | --- |
| C[C@@H]1C[C@H](C)CN([C@H]2CS(=O)(=O)C[C@@H]2S(=O)(=O)c2cccs2)C1 | NR2F6 (Homo sapiens) | Firefly, F4/pGL4 for S/B(F4) > 3 | 2.8 |
| O=S1(=O)C[C@H](NCCCc2ccccc2)[C@@H](S(=O)(=O)c2ccc(Cl)cc2)C1 | NR2F6 (Homo sapiens) | Firefly, F4/pGL4 for S/B(F4) > 3 | 3.1 |
| O=S1(=O)C[C@H](NCCc2cccs2)[C@@H](S(=O)(=O)c2ccc(Cl)cc2)C1 | NR2F6 (Homo sapiens) | Firefly, F4/pGL4 for S/B(F4) > 3 | 1.9 |
| COc1ccc(CCN[C@H]2CS(=O)(=O)C[C@@H]2S(=O)(=O)c2ccc(Cl)cc2)cc1OC | NR2F6 (Homo sapiens) | Firefly, F4/pGL4 for S/B(F4) > 3 | 1.8 |
| CCC(C)N[C@H]1CS(=O)(=O)C[C@@H]1S(=O)(=O)c1ccc(Cl)cc1 (stereo partly shown) | NR2F6 (Homo sapiens) | Firefly, F4/pGL4 for S/B(F4) > 3 | 2.9 |
| O=S1(=O)C[C@H](NC2CCCCCC2)[C@@H](S(=O)(=O)c2ccc(Cl)cc2)C1 | NR2F6 (Homo sapiens) | Firefly, F4/pGL4 for S/B(F4) > 3 | 2.0 |
| COCCN[C@H]1CS(=O)(=O)C[C@@H]1S(=O)(=O)c1ccc(Cl)cc1 | NR2F6 (Homo sapiens) | Firefly, F4/pGL4 for S/B(F4) > 3 | 3.0 |
| Cc1cccc(CN[C@H]2CS(=O)(=O)C[C@@H]2S(=O)(=O)c2ccc(Cl)cc2)c1 | NR2F6 (Homo sapiens) | Firefly, F4/pGL4 for S/B(F4) > 3 | 2.3 |
| CCC(C)N[C@H]1CS(=O)(=O)C[C@@H]1S(=O)(=O)c1ccc(C)cc1 (stereo partly shown) | NR2F6 (Homo sapiens) | Firefly, F4/pGL4 for S/B(F4) > 3 | 2.3 |
| O=S1(=O)C[C@H](NC2CCCC2)[C@@H](S(=O)(=O)c2ccc(F)cc2)C1 | NR2F6 (Homo sapiens) | Firefly, F4/pGL4 for S/B(F4) > 3 | 1.6 |
| O=S1(=O)C[C@H](NC2CCCCC2)[C@@H](S(=O)(=O)c2ccc(Cl)cc2)C1 | NR2F6 (Homo sapiens) | Firefly, F4/pGL4 for S/B(F4) > 3 | 1.4 |
| O=S1(=O)C[C@H](NCc2ccco2)[C@@H](S(=O)(=O)c2cccs2)C1 | NR2F6 (Homo sapiens) | Firefly, F4/pGL4 for S/B(F4) > 3 | 2.3 |
| CC(C)N[C@H]1CS(=O)(=O)C[C@@H]1S(=O)(=O)c1ccc(Cl)cc1 | NR2F6 (Homo sapiens) | Firefly, F4/pGL4 for S/B(F4) > 3 | 1.8 |
| C[C@@H]1C[C@H](C)CN([C@H]2CS(=O)(=O)C[C@@H]2S(=O)(=O)c2ccccc2)C1 | NR2F6 (Homo sapiens) | Firefly, F4/pGL4 for S/B(F4) > 3 | 3.7 |
| CCCCN(C)[C@H]1CS(=O)(=O)C[C@@H]1S(=O)(=O)c1ccc(Cl)cc1 | NR2F6 (Homo sapiens) | Firefly, F4/pGL4 for S/B(F4) > 3 | 3.4 |
| O=S1(=O)C[C@H](N2CCCCC2)[C@@H](S(=O)(=O)c2cccs2)C1 | NR2F6 (Homo sapiens) | Firefly, F4/pGL4 for S/B(F4) > 3 | 2.1 |
